Assay: yeast display, Sf9 membrane polyspecificity reagent, FACS + sequencing; frameworks hold sequencing errors
PROPERTY LABEL: polyreactivity (PSR sort gate)

[[record]]
sequence_record = "QVQLVESGGGLVQAGGSLRLSCAASGSTFYSYAMGWYRQAPGKERELVAAISWDGGLTYYADSVKGRFTISRDTAKNTVYLQMNSLKPEDTAVYYCAAAYPTYRHYYWGQGTQVTVSS"
property_label = "polyreactivity (PSR sort gate)"
reported_measurement = "low polyreactivity"

[[record]]
sequence_record = "QVQLVESGGGLVQAGGSLRLSCAASGFTFSKYGMGWYRQAPGKERELVAAISSGGSTHYADSVKGRFTISRDNAKNTVYLQMNILKPADTAVYYCNASSKFAKPQRYYWGQGTQVTVSS"
property_label = "polyreactivity (PSR sort gate)"
reported_measurement = "low polyreactivity"

